test system: 3C-like protease (3CLpro), SARS coronavirus
experiment description: SARS 3CLpro protease inhibitor potency, late-stage follow-up, biochemical, fluorescence, dose response, set 3 (AID 588771)
experimental parameters: purified 3CLpro, fluorogenic substrate cleavage
The source made the active and inactive calls. No rule for the calls is given here.
Outcomes: True for active, False for inactive

molecule | label value
CC(C)C(=O)Nc1ccc(N(C(=O)Cn2nnc3ccccc32)C(C(=O)NCc2ccccc2)c2cccc(F)c2)cc1 (stereo not given) | True
CC(C)(C)NC(=O)[C@H](c1cccnc1)N(C(=O)c1cnc[nH]1)c1ccc(C(C)(C)C)cc1 | True
CC(C)(C)NC(=O)[C@@H](c1cccnc1)N(C(=O)c1cnc[nH]1)c1ccc(C(C)(C)C)cc1 | False
O=C(Nc1ccc(N(C(=O)Cn2nnc3ccccc32)C(C(=O)NCc2ccccc2)c2cccc(F)c2)cc1)C1CC1 (stereo not given) | True
CC(C)(C)NC(=O)C(c1cnccn1)N(C(=O)c1ccco1)c1ccc(C(C)(C)C)cc1 (stereo not given) | True
O=C(Nc1ccc(N(C(=O)Cn2nnc3ccccc32)C(C(=O)NCc2ccccc2)c2cccc(F)c2)cc1)C1CCC1 (stereo not given) | True
Cn1cnc(C(=O)N(c2ccc(C(C)(C)C)cc2)C(C(=O)NC(C)(C)C)c2cccnc2)c1 (stereo not given) | False
CC(C)(C)NC(=O)C(c1ccncc1)N(C(=O)c1ccco1)c1ccc(C(C)(C)C)cc1 (stereo not given) | False
CC(C)(C)NC(=O)C(c1cccnc1)N(C(=O)c1ccco1)c1ccc(Cc2ccccc2)cc1 (stereo not given) | False
CC(C)(C)NC(=O)C(c1ccnnc1)N(C(=O)c1ccco1)c1ccc(C(C)(C)C)cc1 (stereo not given) | False
